Tested on: SNB-19 CNS
Assay Name: NCI-60 one-dose screen, 48 h (100 = growth as untreated, 0 = no growth, -100 = all killed)
Condition Summary: 10 µM unless noted
About 83,000 compounds went through this panel and 20% of them were active in at least one assay; those are over-represented in the sample as a whole.
Listed here: items and their measured growth.

{"columns": ["Molecule", "System", "growth, %"],
 "data": [
  ["NNc1ncnc2sc3c(c12)CCN(Cc1ccccc1)C3", "SNB-19 CNS", 69.4],
  ["Cc1nn(-c2ccccc2)c2ncn(CC(=O)N/N=C/c3ccccc3O)c(=O)c12", "SNB-19 CNS", 57.1],
  ["COC(=O)c1cc(C(=O)CBr)n2c1ccc1c3ccccc3ccc12", "SNB-19 CNS", 55.5],
  ["COc1ccc(S(=O)(=O)Nc2ccc(-c3ccc4c(c3)NC(=O)/C4=C\\c3ccc[nH]3)cc2)cc1OC", "SNB-19 CNS", 3.61],
  ["CC1=NN(C2=NC(=O)C(CC(=O)Nc3ccccc3C(F)(F)F)S2)C(c2ccc(N(C)C)cc2)C1 (stereo not drawn)", "SNB-19 CNS", 54.5],
  ["Fc1ccccc1CNc1nc(SCCN2CCOCC2)nc2c1cnn2CC(Cl)c1ccc(Br)cc1 (stereo not drawn)", "SNB-19 CNS", 52.6],
  ["Fc1ccc(F)c(CNc2nc(SCCN3CCOCC3)nc3c2cnn3CC(Cl)c2ccc(Br)cc2)c1 (stereo not drawn)", "SNB-19 CNS", 42.2],
  ["Cc1ccc2nc(NC(=O)Nc3cccc(Cl)c3)sc2c1", "SNB-19 CNS", 103],
  ["COc1cc(C2CC(c3ccc(Cl)cc3)=Nc3c(N)nc(N)nc3N2)ccc1Oc1nc(Nc2ccc(F)cc2)nc(N(C)C)n1 (stereo not drawn)", "SNB-19 CNS", 47.7],
  ["Cc1cc(C2(c3cc(C)c(OCC(O)CNc4c(C)n(C)n(-c5ccccc5)c4=O)cc3C(C)C)OC(=O)c3ccccc32)c(C(C)C)cc1OCC(O)CNc1c(C)n(C)n(-c2ccccc2)c1=O (stereo not drawn)", "SNB-19 CNS", 48.9],
  ["O=C(c1ccc(Cl)cc1)C1[C@H](c2ccccc2Cl)[C@@H](c2ccccc2)NC12C(=O)Nc1ccccc12 (stereo partly drawn)", "SNB-19 CNS", 7.09],
  ["COc1cc(/C=N/NC(=O)c2ccc(OCc3nc4ccc(Cl)cc4[nH]3)cc2)cc(OC)c1OC", "SNB-19 CNS", 55.5],
  ["COc1ccc(-c2cc(C(=O)Oc3ccc(C=O)cc3OC)nn2-c2ccc(S(C)(=O)=O)cc2)cc1", "SNB-19 CNS", 94.5]
]}

---

System: OVCAR-4 ovarian
Assay Name: NCI-60 one-dose screen, 48 h
Condition Summary: 10 µM unless noted
The panel holds about 83,000 compounds, 20% with a hit somewhere; the sample as a whole holds those more often. Calls of active or inactive are those of the source. Rule for the calls: active = growth percent below 10; inactive = the rest.
Classes used: yes (active), no (inactive)

{"columns": ["Compound", "Assigned Category"],
 "data": [
  ["O=C1Nc2cc(-c3ccc(NS(=O)(=O)c4ccc(F)c(Cl)c4)cc3)ccc2/C1=C/c1ccc[nH]1", "no"],
  ["Nc1ccc(-c2ccc3ncnc(N4CCc5cc(F)c(Cl)cc54)c3c2)cn1", "no"],
  ["COc1cccc(NC(=O)c2ccc(NC(=O)CCl)s2)c1", "no"],
  ["CN(C)CCCc1ccc(Nc2cnn(C)c(=O)c2Cl)cc1", "no"],
  ["COc1ccc(-c2cc(C(=O)Oc3ccc(C=O)cc3OC)nn2-c2ccc(S(C)(=O)=O)cc2)cc1", "no"],
  ["COc1ccc(N=Nc2c(N)nn3c(N)c(C#N)c(-c4ccccc4)nc23)cc1", "yes"],
  ["O=c1[nH]c2ccccc2cc1CSc1ccccc1Nc1nccc(-c2ccc3c(c2)OCO3)n1", "no"],
  ["COc1cc2cc(C(=O)N3C[C@@H](CCl)c4c3cc(OC(=O)N(CCC(=O)N3CCN(C)CC3)C3CCCCC3)c3ccccc43)[nH]c2c(OC)c1OC", "yes"],
  ["CN(C)c1nc(NCCNS(=O)(=O)c2ccc(C(=O)/C=C/c3ccc(C(F)(F)F)cc3)cc2)nc(N2CCOCC2)n1", "no"],
  ["CCC(=O)c1cc(C(=O)OC)c2ccc3c4ccccc4ccc3n12", "yes"],
  ["CN(C)CCOc1ccc(C(=O)C2[C@H](c3ccc(Cl)cc3)[C@@H](c3ccccc3)NC23C(=O)Nc2ccc(Cl)cc23)cc1 (stereo partly drawn)", "yes"],
  ["N#C/C(=C1/C(=O)Nc2ccccc21)c1nnc(NC(=O)c2ccc(-n3c(=O)[nH]c4ccccc4c3=O)cc2)s1", "no"],
  ["Cc1ccc(S(=O)(=O)Nc2ccc(-c3ccc4c(c3)NC(=O)/C4=C\\c3ccc[nH]3)cc2)cc1", "no"]
]}

---

Test system: A549/ATCC NSCLC
Assay Name: NCI-60 one-dose screen, 48 h
Condition Summary: 10 µM unless noted
Experimental: Growth inhibition of the A549/ATCC human Non-Small Cell Lung tumor cell line is measured as a screen for anti-cancer activity. Cells are grown in 96 well plates and exposed to the test compound for 48 hours. Compounds are tested at a single concentration, which is 10^-5 M for most compounds. The reported endpoint is percent growth (GI% or GIPRCNT), where numbers from 0 - 100% represent growth inhibition, and numbers from -100% - 0 represent cell death. […]
The panel holds about 83,000 compounds, 20% with a hit somewhere; the sample as a whole holds those more often. The source made the active and inactive calls. How the source made its calls: active means growth percent below 10; inactive means the rest.
Classes used: true (1) = active, false (0) = inactive

{"columns": ["Compound", "System", "Assigned Category"],
 "data": [
  ["C=CCn1c(O)c(N=Nc2nc(-c3cc4ccccc4oc3=O)cs2)c2ccccc21", "A549/ATCC NSCLC", "false (0)"],
  ["O=C(Nc1nc2ccc([N+](=O)[O-])cc2s1)Nc1ccc(Cl)cc1Cl", "A549/ATCC NSCLC", "false (0)"],
  ["N#CC1=C(c2cccs2)Nc2c(c(-c3ccccc3)nn2-c2ccccc2)C12C(=O)Nc1ccccc12 (stereo not given)", "A549/ATCC NSCLC", "true (1)"],
  ["O=C(Cn1c(-c2ccccc2)nc2ccccc21)N=Nc1c(O)[nH]c2ccc(Cl)cc12", "A549/ATCC NSCLC", "true (1)"],
  ["COc1ccc2c(c1)C(Sc1ccc(Cl)cc1)c1c(nc(N)c(C#N)c1N)O2 (stereo not given)", "A549/ATCC NSCLC", "false (0)"]
]}

---

Test system: OVCAR-8 ovarian
Assay Name: NCI-60 one-dose screen, 48 h
Condition Summary: 10 µM unless noted
Compounds without any hit were thinned out: in the full panel of roughly 83,000, 20% have a hit. The source made the active and inactive calls. Rule for the calls: active = growth percent below 10; inactive = the rest.
Classes used: Y (active), N (inactive)

{"columns": ["Molecule", "Assigned Category"],
 "data": [
  ["CC(=O)Nc1ccc(S(=O)(=O)Nc2ccc(-c3ccc4c(c3)NC(=O)/C4=C\\c3ccc[nH]3)cc2)cc1", "N"],
  ["N#CC1=C(c2cccs2)Nc2c(c(-c3ccccc3)nn2-c2ccccc2)C12C(=O)Nc1ccc(Cl)cc12 (stereo unspecified)", "N"],
  ["CC(C)CN1C(=O)/C(=C\\C(=O)c2cc3ccccc3oc2=O)c2ccccc21", "N"],
  ["CC[C@]12C=CCN3CC[C@@]4(c5ccc(OC)cc5N(C)[C@H]4[C@@](O)(C(=O)OC)[C@@H]1OC(=O)CCC[P+](c1ccc(OC)cc1)(c1ccc(OC)cc1)c1ccc(OC)cc1)[C@@H]32", "Y"],
  ["O=C1Nc2cc(-c3ccc(NS(=O)(=O)c4ccc(F)c(Cl)c4)cc3)ccc2/C1=C/c1ccc[nH]1", "N"],
  ["CCCCNc1ccc2c3c(cccc13)C(=O)N(c1cccc(-c3nn(-c4ccccc4)cc3-c3nc4ccccc4s3)c1)C2=O", "N"],
  ["CCCCCCCOc1ccc(S(=O)(=O)Nc2ccc(C)c(F)c2C(=O)O)cc1", "N"],
  ["C#CCCCNCCNc1ccnc2cc(Cl)ccc12", "N"],
  ["Cc1ccc(N=Nc2c(N)nn3c(-c4cc5ccccc5oc4=O)ccnc23)cc1", "N"],
  ["c1n[nH]cc1-c1nc2ccc3cn[nH]c3c2c2c1CCCC2", "N"],
  ["CN(C)c1nc(NCCNS(=O)(=O)c2ccc(C(=O)/C=C/c3ccccc3)cc2)nc(N2CCOCC2)n1", "N"]
]}

---

System: ACHN renal
Assay Name: NCI-60 one-dose screen, 48 h (100 = growth as untreated, 0 = no growth, -100 = all killed)
Condition Summary: 10 µM unless noted
The panel holds about 83,000 compounds, 20% with a hit somewhere; the sample as a whole holds those more often.

{"columns": ["Compound", "growth (%)"],
 "data": [
  ["COc1cc(C2CC(c3ccc(C(F)(F)F)cc3)=Nc3c(N)nc(N)nc3N2)ccc1Oc1nc(Nc2ccc(F)cc2)nc(N(C)C)n1 (stereo not drawn)", 48.3],
  ["COc1cc(C2C(C(=O)OCc3ccccc3)=C(C)Nc3nc4ccccc4n32)cc(OC)c1OC (stereo not drawn)", -4.94],
  ["CC1=C(C(=O)OC(C)C)C(c2ccc(O)cc2)NC(=O)N1 (stereo not drawn)", 106]
]}

These measurements were taken from PubChem BioAssay (NCI).
